# TEST SYSTEM: Btk (Homo sapiens)
# Construct: purified from insect cells as a full-length construct containing a N-terminal 6X-His tag; His6 (N); made in house; host or cells: insect cells (Method C)
# ASSAY OVERVIEW: Btk in vitro inhibitory activity (one of Method A TR-FRET, Method B electrophoretic mobility shift, Method C radiometric filter binding)
# Format: biochemical
# RUN PARAMETERS: wild-type Btk; read-out: Btk-WT IC50
Measured IC50 values are reported for all entries that follow.
Your answer is read as nM, so omit the unit and give the number.

C=CC(=O)N1CC=C(c2n[nH]c3nccc(-c4ccc(CNC(=O)c5noc(C(C)(C)C)n5)c(F)c4)c23)C1
0.0568
C=CC(=O)N1CC[C@@H](Nc2n[nH]c3nccc(-c4ccc(CNC(=O)c5cc(C(C)(C)C)on5)c(F)c4)c23)C1
0.0792
C=CC(=O)N1CC[C@@H](Nc2n[nH]c3nccc(-c4ccc(CNC(=O)c5cnc(N(C)C)o5)c(F)c4)c23)C1
3.91

Then this compound:
INPUT: Quick one: IC50 for CC(=O)N[C@@H]1CCN(c2n[nH]c3nccc(-c4ccc([C@@H](C)NC(=O)c5cc(C(C)(C)O)on5)c(F)c4)c23)C1 ?
OUTPUT: 3.99

* * *

# TEST SYSTEM: Btk (Homo sapiens, UniProt Q06187)
# Construct: purified from insect cells as a full-length construct containing a N-terminal 6X-His tag; His6 (N); made in house; host or cells: insect cells (Method C)
# Sequence (Q06187 whole entry): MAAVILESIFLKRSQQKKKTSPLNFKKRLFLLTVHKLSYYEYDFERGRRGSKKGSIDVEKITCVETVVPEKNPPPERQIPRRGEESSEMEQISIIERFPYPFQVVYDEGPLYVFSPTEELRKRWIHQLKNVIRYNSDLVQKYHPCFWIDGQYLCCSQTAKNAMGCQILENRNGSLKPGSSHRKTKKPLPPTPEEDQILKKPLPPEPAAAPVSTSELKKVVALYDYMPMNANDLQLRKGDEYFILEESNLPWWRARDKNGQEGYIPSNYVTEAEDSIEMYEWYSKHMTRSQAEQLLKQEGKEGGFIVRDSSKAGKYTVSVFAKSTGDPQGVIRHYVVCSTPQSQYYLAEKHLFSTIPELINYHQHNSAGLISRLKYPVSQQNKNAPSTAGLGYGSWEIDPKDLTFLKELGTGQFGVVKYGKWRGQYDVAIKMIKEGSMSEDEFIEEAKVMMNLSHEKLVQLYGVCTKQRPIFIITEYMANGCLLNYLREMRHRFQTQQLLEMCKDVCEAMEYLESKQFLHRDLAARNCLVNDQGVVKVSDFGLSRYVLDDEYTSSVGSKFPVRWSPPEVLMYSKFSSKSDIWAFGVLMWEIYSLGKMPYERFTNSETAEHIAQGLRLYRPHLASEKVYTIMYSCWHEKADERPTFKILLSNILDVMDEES
# ASSAY OVERVIEW: Btk in vitro inhibitory activity (one of Method A TR-FRET, Method B electrophoretic mobility shift, Method C radiometric filter binding)
# Type: biochemical
# RUN PARAMETERS: wild-type Btk; read-out: Btk-WT IC50
Measured IC50 values are reported for all entries that follow.
Your answer is read as nM, so omit the unit and give the number.

C[C@H]1CC[C@@H](Nc2n[nH]c3nccc(-c4ccc(CNC(=O)c5nc(C(C)(C)C)no5)c(F)c4)c23)CN1
84.4
CN(C)C(=O)N1CC[C@@H](Nc2n[nH]c3nccc(-c4ccc(CNC(=O)c5nc(C(C)(C)C)no5)c(F)c4)c23)C1
7.38
CNC1CCN(c2n[nH]c3nccc(-c4ccc(CNC(=O)c5nc(C(C)(C)C)no5)c(F)c4)c23)C1 (stereo not drawn)
1.26

INPUT: Quick one: IC50 for C=CC(=O)N1CC[C@@H](Nc2n[nH]c3nccc(-c4ccnc(N5CCn6c(cc7c6CC(C)(C)C7)C5=O)c4C=O)c23)C1 ?
OUTPUT: 482

INPUT: Quick one: IC50 for C=CC(=O)N1CC[C@@H](Nc2n[nH]c3nccc(-c4ccc(CCNC(=O)c5noc(C(C)(C)C)n5)c(F)c4)c23)C1 ?
OUTPUT: 1.43

INPUT: Quick one: IC50 for C=CC(=O)N1C[C@H](Nc2n[nH]c3nccc(-c4ccc(CNC(=O)c5nc(C(C)(C)C)no5)c(F)c4)c23)CC[C@@H]1C ?
OUTPUT: 0.0924

* * *

# TEST SYSTEM: Btk (Homo sapiens)
# Construct: purified from insect cells as a full-length construct containing a N-terminal 6X-His tag; His6 (N); made in house; host or cells: insect cells (Method C)
# ASSAY OVERVIEW: Btk in vitro inhibitory activity (one of Method A TR-FRET, Method B electrophoretic mobility shift, Method C radiometric filter binding)
# Format: biochemical
# RUN PARAMETERS: wild-type Btk; read-out: Btk-WT IC50
PARAMETER: IC50

CC(C)(C)c1nc(C(=O)NCc2ccc(-c3ccnc4[nH]nc(N[C@H]5CC[C@H](N)CC5)c34)cc2F)no1
21.7 nM
C[C@H]1CC[C@@H](Nc2n[nH]c3nccc(-c4ccc(CNC(=O)c5noc(C(C)(C)C)n5)c(F)c4)c23)CN1CC#N
7.08 nM
CC(C)(C)c1nc(C(=O)NCc2ccc(-c3ccnc4[nH]nc(N[C@@H]5CCNC5)c34)c(F)c2)no1
85.9 nM

INPUT: Quick one: IC50 for CC(=O)N[C@@H]1CCN(c2n[nH]c3nccc(-c4ccc(CNC(=O)c5cc(C(C)(C)C#N)on5)c(F)c4)c23)C1 ?
OUTPUT: 17.3 nM

INPUT: Quick one: IC50 for CC(C)c1nc(C(=O)NCc2ccc(-c3ccnc4[nH]nc(N5CC[C@@H](N)C5)c34)cc2F)no1 ?
OUTPUT: 6.98 nM

INPUT: Quick one: IC50 for C=CC(=O)N1CC[C@@H](Nc2n[nH]c3nccc(-c4ccc(CNC(=O)c5cn6c(C)cccc6n5)c(F)c4)c23)C1 ?
OUTPUT: 38.1 nM

INPUT: Quick one: IC50 for CC(C)(C)c1nc(C(=O)NCc2ccc(-c3ccnc4[nH]nc(C5CCNC5)c34)cc2F)no1 (centres unmarked) ?
OUTPUT: 93.5 nM

INPUT: Quick one: IC50 for CCc1cc(C(=O)NCc2ccc(-c3ccnc4[nH]nc(N[C@@H]5CCCN(C(=O)N(C)C)[C@@H]5C)c34)cc2F)no1 ?
OUTPUT: 559 nM
